molecular target: T1, wild-type ZIKV prM/E (ZIKV SPH2015) (Zika virus, SPH2015, UniProt A0A0U3FSM8, strain); assay: flow cytometry on cells; conditions: one partner purified
T1 construct: also called WT prM/E; wild-type prM/E; source: HEK-293T, transfected, cells fixed and permeabilised

[
  {
    "binder": "anti-ZIKV MAb 78-2 (antibody, V domains shown) VH: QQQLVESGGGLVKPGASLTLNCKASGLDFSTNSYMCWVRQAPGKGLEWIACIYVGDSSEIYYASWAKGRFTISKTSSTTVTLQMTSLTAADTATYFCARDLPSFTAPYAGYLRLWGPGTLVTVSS VL: QPVLTQPPSLSASLGTTARLTCTLRTGYNVGDYPLLWLQRVPGRPPRYLLTYHTEEFKHQGSGVHSRFSGSKDASENAGVLSISGLQPEDEANYYCYTVHATESSLHYVFGGGTQLTVT",
    "binding result": "binds"
  },
  {
    "binder": "anti-ZIKV MAb 289-3 (antibody, V domains shown) VH: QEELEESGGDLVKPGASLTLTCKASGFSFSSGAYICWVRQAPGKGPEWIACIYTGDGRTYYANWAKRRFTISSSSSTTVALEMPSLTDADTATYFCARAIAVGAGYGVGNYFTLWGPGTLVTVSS VL: DIVMTQTPSSVSAAVGGTVTINCHASENIYGYLSWYQQKPGQPPKLLIYKASTLASGVPSRFKGSGAGTQFTLTITALECADAATYYCQSYYTSSSNADGSENAFGGGTEVVVE",
    "binding result": "binds"
  },
  {
    "binder": "anti-ZIKV MAb 270-12 (antibody, V domains shown, source: 293-6E cells, cotransfected, purified (MabSelect SuRe protein A)) VH: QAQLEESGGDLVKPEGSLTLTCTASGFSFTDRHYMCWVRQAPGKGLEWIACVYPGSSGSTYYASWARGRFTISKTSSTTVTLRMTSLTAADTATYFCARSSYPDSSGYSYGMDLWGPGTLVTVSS VL: DIVMTQTPASVEAAVGGTVTIKCQASQDINSNLAWYQQKPGQRPKFLMYLTSKLASGVPSRFRGSGSGTQFTLTISDLECADAATYYCQTYYDISNYGYAFGGGTEVVVK",
    "binding result": "binds"
  }
]
